meta.source: patent US20250345190A1

assay: Porcine-PK study of BuMA Supreme stent (blood, myocardium, coronary artery tissue); assay type: in vivo, Yucatan Miniature Swine; conditions: Yucatan miniature swine, pig, coronary artery, stented segment, other: drug-eluting stent implanted in coronary arteries, study day 1; BuMA Supreme stent, porcine; read-out: Arterial drug concentration

| molecule | concentration at 1 days / ng/g |
| --- | --- |
| CO[C@H]1C[C@@H]2CC[C@@H](C)[C@@](O)(O2)C(=O)C(=O)N2CCCC[C@H]2C(=O)O[C@H]([C@H](C)C[C@@H]2CC[C@@H](O)[C@H](OC)C2)CC(=O)[C@H](C)/C=C(\C)[C@@H](O)[C@@H](OC)C(=O)[C@H](C)C[C@H](C)/C=C/C=C/C=C/1C [Rapamycin, Sirolimus (rapamycin)] | 1630 |
